# protocol details: physchem
# cond: pH 2.7
measured parameter: chromatographic logP

{"columns": ["structure smiles", "obs value"],
 "data": [
  ["CC(C)(C)OC(=O)N1CCC(c2nc(CSC(=N)N)cs2)CC1", 1.44]
]}

====

// reported chromatographic logP for each item listed
# protocol details: logP determination by HPLC (EEC Directive 79/831 Annex V.A8), LC-MS
# cond: pH 7.8, logP, ** neutral range, pH 7.8, 0.001 molar aqueous ammonium bicarbonate/acetonitrile
measured parameter: chromatographic logP

{"columns": ["molecule", "obs value"],
 "data": [
  ["Cc1cc(C(F)(F)F)nn1CC(=S)N1CCC(c2nc(CSc3nnnn3-c3ccccc3)cs2)CC1 [Compound I-15]", 2.87],
  ["Cc1cc(C(F)(F)F)nn1CC(=O)N1CCC(c2nc(CSc3nnnn3-c3ccccc3)cs2)CC1 [Compound I-4]", 3.26],
  ["Cc1cc(C(F)(F)F)nn1CC(=O)N1CCC(c2nc(CS(=O)(=O)C3CCCCC3)cs2)CC1 [Compound I-7]", 2.87]
]}
